The measurements presented in this section are drawn from PubChem BioAssay.

method: binders of probe aHhip on microarray, primary screen, stem cell growth factor project, biochemical, small-molecule microarray, fluorescence 635/667 (AID 1087);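 further: score merges spot fluorescence at 667nm with spot signal to noise ratio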
condition-set: higher = more signal
Each entry gets 0.0 if its composite z-score stays under 0.04, and 1.0 if its composite z-score is 0.04 or above.

COCCCN1C(=O)[C@@]2(c3ccc([N+](=O)[O-])cc3)CC(=O)N(CC34CC5CC(CC(C5)C3)C4)[C@@H]2c2ccc(CO)cc21 | 1.0
O=C1C2C=CC(C(O)C3CCCCC3)N(n3cnnc3)C2C(=O)N1Cc1ccccc1 (stereo unspecified) | 0.0

Input line: Is the recorded value of composite z-score equal to or greater than 0.04 for this compound? CC(C)=CCCC(C)=CC(O)C1C=CC2C(=O)NC(=O)C2N1Nc1ccc(Cl)cc1Cl (stereo unspecified)
Output line: 0.0

Input line: Record: COCC(=C=CC[C@H](O)c1ccccc1OCCO)C[C@H](O)COCc1ccccc1
Output line: 1.0

Input line: Check CC(C)C(=C=CC[C@H](O)c1ccccc1OCCO)C[C@H](O)COCc1ccccc1 too.
Output line: 0.0

Input line: And what about the compound COc1ccc([Si](C)(C)[C@H]2[C@H](CC(=O)N3Cc4ccccc4C[C@H]3CO)O[C@@]3(C(=O)N(C)c4ccccc43)[C@@H]2C)cc1 ?
Output line: 1.0

Input line: Now this one: CO[C@H]1O[C@H](CO)[C@@H](OC(=O)Nc2ccc3c(c2)OCO3)[C@H](OC(=O)Nc2ccccc2-c2ccccc2)[C@H]1OC(=O)Nc1ccccc1-c1ccccc1
Output line: 1.0

Input line: And what about the compound CN(C)CCCNC(=O)[C@@]1(Cc2ccccc2I)c2ccccc2C(=O)N(C2CCCCC2)[C@H]1c1ccc(CO)cc1 ?
Output line: 1.0

----------
method: blockers of DNA damage checkpoint Chk1 activation – imaging, HeLa, hydroxyurea, phospho-Chk1 antibody, percent positive cells, primary screen (AID 1186)
condition-set: hydroxyurea-induced phospho-Chk1 immunofluorescence imaging, higher = more signal
Documented z-score across a set of compounds
Format: numeric value only, no unit, no commentary.

Some solved entries appear below for comparison.
C=CC[C@@]12N=C(c3ccc(OCCCO)cc3)O[C@@H]1c1ccccc1N(CCC)C2=O | 0.291
OCCCC1=CC(c2ccc(CN3CCCC3)cc2)N(Cc2cccc(OC(F)(F)F)c2)CC1 (stereo not drawn) | 0.86
NC(=O)N1C(=O)C2C(C1=O)C1C=C(CCCO)C2C(c2ccc(CN3CCCC3)cc2)N1Cc1sc2ccccc2c1Cl (stereo not drawn) | 0.252
C[C@@H]1NC(=O)C([C@@H](C)OCc2ccccc2)NC(=O)[C@@]23C(=O)N[C@@H](Cc4ccccc4)C2[C@H](C)[C@@]2(C)O[C@H]2C3/C=C/C/C=C\CNC1=O (stereo partly drawn) | -0.0202

Input line: Which z-score value is on record for CN(C)c1ccc(C(O)C2C=CC3C(=O)N(Cc4ccccc4)C(=O)C3N2n2cnnc2)cc1 (stereo not drawn) ?
Output line: -1.39

Input line: // next record CC(=O)NCCCC[C@@H]1NC(=O)[C@H]2C[C@@H](C(=O)NCCCCCCNC(=O)CS)[C@@H](c3cccc(OCCO)c3)N2C1=O
Output line: 0.0478

Input line: Likewise for CC(C)=CCCC(C)=CC(O)C1C=CC2C(=O)NC(=O)C2N1Nc1ccccn1 (stereo not drawn) ?
Output line: 0.282

Input line: Then this compound: CC1CC/C=C\[C@H]2OC34C=CCN(Cc5ccccc5)C(=O)[C@H]3N(CCCCCCO)C(=O)[C@@H]4C2C(=O)O1 (stereo partly drawn)
Output line: 0.0339

Input line: # iterate: CC(C)C(O)C1C=CC2C(=O)NC(=O)C2N1Nc1ccccn1 (stereo not drawn)
Output line: -0.446

Input line: Would you kindly repeat that for CCCC[C@H]1OB(O)C[C@H]2C1=C(COc1ccccc1)C[C@H]1C(=O)C=CC(=O)[C@H]12 ?
Output line: -0.177

Input line: Please answer likewise for COCCOC(=O)N1C(=O)[C@@]2(c3cc(C#CCC(C(=O)OC)C(=O)OC)ccc31)[C@H](C(=O)Nc1nc3ccccc3s1)[C@H]1C(=O)O[C@H](c3ccccc3)[C@H](c3ccccc3)N1[C@@H]2c1ccc(OCCO)cc1
Output line: -0.0393

Input line: Moving on to COc1ccc([Si](C)(C)[C@H]2[C@H](CC(=O)N3Cc4ccccc4C[C@H]3CO)O[C@@]3(C(=O)N(c4ccccc4)c4ccccc43)[C@@H]2C)cc1
Output line: -0.447

Input line: Proceed to NC(=O)N1C(=O)C2C(C1=O)C1C=C(CCCO)C2C(c2ccc(CN3CCCC3)cc2)N1Cc1cc2c(cc1Br)OCO2 (stereo not drawn)
Output line: 0.504

----------
target-under-test: Focal adhesion kinase 1 (Homo sapiens) (UniProt Q05397)
Sequence (Q05397 whole entry, looked up): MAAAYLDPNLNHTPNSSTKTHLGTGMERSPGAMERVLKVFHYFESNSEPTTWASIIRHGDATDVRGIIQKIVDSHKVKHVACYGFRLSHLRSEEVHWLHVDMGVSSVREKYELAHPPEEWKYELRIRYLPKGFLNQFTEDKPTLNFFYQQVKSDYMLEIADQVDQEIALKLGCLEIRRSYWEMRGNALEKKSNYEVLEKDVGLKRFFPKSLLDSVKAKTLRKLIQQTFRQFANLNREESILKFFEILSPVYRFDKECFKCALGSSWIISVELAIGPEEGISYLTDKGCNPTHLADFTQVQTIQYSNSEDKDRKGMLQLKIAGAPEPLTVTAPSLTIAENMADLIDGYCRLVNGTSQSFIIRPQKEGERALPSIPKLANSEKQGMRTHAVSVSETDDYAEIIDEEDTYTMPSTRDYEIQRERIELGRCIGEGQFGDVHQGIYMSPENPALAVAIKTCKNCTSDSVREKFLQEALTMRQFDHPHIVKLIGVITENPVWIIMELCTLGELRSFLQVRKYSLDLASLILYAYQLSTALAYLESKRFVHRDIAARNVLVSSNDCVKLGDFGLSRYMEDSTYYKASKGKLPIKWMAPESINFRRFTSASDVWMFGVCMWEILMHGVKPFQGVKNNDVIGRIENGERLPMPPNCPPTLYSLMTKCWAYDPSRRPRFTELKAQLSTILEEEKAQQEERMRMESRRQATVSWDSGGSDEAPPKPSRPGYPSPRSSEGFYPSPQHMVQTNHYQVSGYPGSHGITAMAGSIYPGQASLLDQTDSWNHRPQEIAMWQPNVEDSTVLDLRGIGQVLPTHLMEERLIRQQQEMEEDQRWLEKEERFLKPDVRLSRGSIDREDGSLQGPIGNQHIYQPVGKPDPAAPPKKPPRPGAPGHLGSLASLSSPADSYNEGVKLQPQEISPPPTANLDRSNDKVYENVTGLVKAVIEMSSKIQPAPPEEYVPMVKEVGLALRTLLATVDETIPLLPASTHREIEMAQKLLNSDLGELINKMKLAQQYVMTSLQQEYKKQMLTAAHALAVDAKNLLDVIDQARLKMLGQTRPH
method: PTK2 protein binding on printed compound slides – biochemical, small-molecule microarray, 635/667 nm fluorescence, BSA, DTT, primary screen (AID 1130);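 further: composite of spot emission at 667 nm and signal to noise over triplicate slides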
condition-set: 635 nm fluorescence, higher = more signal
measured-quantity: composite z-score
Output spec: single numeric token, no unit.

Worked cases, answers included:
[N-]=[N+]=NCc1ccccc1[C@@H]1OC(c2ccc(OCCCO)cc2)=N[C@]1(Cc1ccccc1N=[N+]=[N-])C(=O)NCC(O)CO (some centres undefined) | 0.955
CN(C)CCCCNC(=O)[C@H]1C[C@H]2C(=O)N3CCC[C@H]3C(=O)N2[C@H]1c1cccc(OCCO)c1 | 1.02

Input line: I'm curious: which composite z-score was measured for NC(=O)N1C(=O)C2C(C1=O)C1C=C(CCCO)C2C(c2ccc(CN3CCCC3)cc2)N1Cc1cc2c(cc1Br)OCO2 (centres undefined) tested on Focal adhesion kinase 1 (Homo sapiens) (UniProt Q05397)?
Output line: -0.214

Input line: # repeat for C=CCC(OC(C)=O)[C@@H]1[C@@H](N(Cc2cccc3ccccc23)C(=O)c2ccc(-c3ccccc3)cc2)c2cc(OCCCO)ccc2N1C(=O)Cc1ccc2ccccc2c1 (some centres undefined)
Output line: -0.166

----------
method: viability profiling in MM1S myeloma cells – cell-based, resazurin fluorescence, basal, 24 h, PK04 Diversity Set, profiling panel (AID 1174);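 further: MM1S multiple myeloma cell line; test concentration not given here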
condition-set: higher = more signal, called active from +8 up or from −8 down
z-score listing for selected compounds.
Please reply with the number alone, leaving off any unit.

Illustrative cases are given below, each with its answer.
C=C(COC)C(=O)CC[C@H](OC(=O)c1cccnc1)c1ccc(OCCO)cc1 | -0.443
C=C(CCCC)C(=O)CC[C@H](OC(=O)c1ccccc1-c1ccccc1C(=O)O)c1ccc(OCCO)cc1 | -0.429
C=C(CCCC)/C(=C/C[C@H](OC(C)=O)c1cccc(OCCO)c1)c1cnc2ccccc2c1 | -0.117
CO[C@H]1O[C@H](CO)[C@@H](OC(=O)Nc2ccc3c(c2)OCO3)[C@H](OC(=O)Nc2ccccc2-c2ccccc2)[C@H]1OC(=O)Nc1ccccc1-c1ccccc1 | -2.94
COCCCNC(=O)[C@@]1(CCS(=O)(=O)c2ccccc2)COC(c2ccc(OCCCO)cc2)=N1 | -0.849

Input line: Reported z-score for COc1ccc([Si](C)(C)[C@@H]2[C@@H](CC(=O)N(CCO)Cc3ccccc3)O[C@]3(C(=O)N(Cc4ccc(I)cc4)c4ccccc43)[C@H]2C)cc1 : what is it?
Output line: -2.27

Input line: Cool, now COC(=O)[C@@]1(Cc2ccc(F)cc2)[C@H]2c3cc(C(=O)N(C)C)n(CCc4ccc(O)c(O)c4)c3C[C@H]2CN1C(=O)c1ccccc1
Output line: -1.01

Input line: Also CC(C)C[C@@H]1NC(=O)[C@@]23C(=O)N[C@@H](Cc4ccccc4)C2[C@H](C)[C@@]2(C)O[C@H]2C3/C=C/C/C=C\CNC(=O)CNC1=O (stereo not given in full) ?
Output line: 0.308

----------
method: S6 kinase pathway phospho-S6 level changes – cell-based, A549, cytoblot, luminescence, serum-stimulated, primary screen (AID 1158);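 further: serum-stimulated A549 lung adenocarcinoma cells; signal is phosphorylated S6 detected by cytoblot immunostaining with HRP secondary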
condition-set: 5 h, higher = more signal
Record rule met whenever z-score is at -0.08 or higher; record rule not met when lower.

// known answers, use as guide
COc1cc(CO)cc(I)c1O[C@H]1C=C(C(=O)NCCO)C[C@@H](NC2CCCCCC2)[C@@H]1O | rule met
COCCOC(=O)N1C(=O)[C@@]2(c3cc(C#Cc4ccc(OC)cc4)ccc31)[C@H](c1ccc(OCCO)cc1)N1[C@H](c3ccccc3)[C@H](c3ccccc3)OC(=O)[C@H]1[C@@H]2C(=O)NC[C@H](O)c1ccccc1 | rule not met
COc1cc(OC)c(C(O)C2C=CC3C(=O)N(c4ccccc4)C(=O)C3N2Nc2ccc(C(C)C)cc2)cc1Br (stereo not given) | rule not met
[N-]=[N+]=Nc1ccccc1[C@H]1OC(c2ccc(OCCCO)cc2)=N[C@@]1(Cc1ccccc1)C(=O)NCC(O)CO (stereo not given in full) | rule met
CC(=O)c1ccc(C(O)C2C=CC3C(=O)N(c4ccccc4)C(=O)C3N2Nc2ccc(C(C)C)cc2)cc1 (stereo not given) | rule not met
O=C1C[C@@](C(=O)NC2CC2)(c2ccc([N+](=O)[O-])cc2)[C@@H](c2ccc(CO)cc2)N1C1CCCCC1 | rule met
O=C1[C@H]2C=C(I)[C@H](C[C@@H]2OCCCCCCO)[C@@]12CO2 | rule not met
O=C(NCc1ccccc1)[C@@H]1c2ccccc2C(=O)N(Cc2cc(C(F)(F)F)cc(C(F)(F)F)c2)[C@H]1c1ccc(CO)cc1 | rule not met
O=C1O[C@H](c2ccccc2)[C@H](c2ccccc2)N2[C@H]1[C@@H](C(=O)O)[C@]1(C(=O)Nc3ccc(C#CCCO)cc31)[C@H]2c1ccc(OCCO)cc1 | rule met
C=CCC(OC(C)=O)[C@@H]1[C@@H](N(Cc2ccc(-c3ccccc3)cc2)C(=O)c2cccc3ccccc23)c2cc(OCCCO)ccc2N1C(=O)Cc1ccc(OC)cc1 (stereo not given in full) | rule met

Input line: Reported z-score reaches at least -0.08 for CC(C)(C)N1CC=CC23O[C@@H]4/C=C\CCCOC(=O)C4[C@H]2C(=O)N(CCCCCO)[C@@H]3C1=O (stereo not given in full) ?
Output line: rule not met

Input line: Same for CC(C)(C)N1CC=CC23O[C@@H]4/C=C\CCCOC(=O)C4[C@H]2C(=O)N(CCCO)[C@@H]3C1=O (stereo not given in full)
Output line: rule met

Input line: Thanks! And CN(C)CCCCNC(=O)[C@H]1C[C@H]2C(=O)NCC(=O)N2[C@H]1c1ccc(O)cc1 ?
Output line: rule not met

Input line: Could you do the same for CN(C)C(=O)[C@@]1(Cc2ccccc2CN=[N+]=[N-])COC(c2ccc(OCCCO)cc2)=N1 , please?
Output line: rule met
